- Subject of test: Type 1 fimbrin D-mannose specific adhesin (Escherichia coli K-12)
- Experimental protocol: Inhibition of Escherichia coli UTI89 FimH assessed as reduction in […] guinea pig erythrocyte hemagglutination titer
Below, each entry is listed alongside its reported EC90.
Express it in µM; write the number only.

{"columns": ["Mol", "EC90, µM"],
 "data": [
  ["Cc1cc(-c2ccc(=O)n(C)c2)ccc1S[C@H]1O[C@H](CO)[C@@H](O)[C@H](O)[C@@H]1O", 1.25]
]}

Query block: State EC90 on Type 1 fimbrin D-mannose specific adhesin (Escherichia coli K-12). Entry: `Cc1cc(-c2ccc(N3CCC3)nc2)ccc1S[C@H]1O[C@H](CO)[C@@H](O)[C@H](O)[C@@H]1O`
Result block: 1.25

Query block: Enter measured EC90, system Type 1 fimbrin D-mannose specific adhesin (Escherichia coli K-12), for the molecule shown: `COc1ccc(-c2ccc(S[C@H]3O[C@H](CO)[C@@H](O)[C@H](O)[C@@H]3O)c(C)c2)cn1`
Result block: 0.31

Query block: Report value only: EC90, Type 1 fimbrin D-mannose specific adhesin (Escherichia coli K-12), `CSc1ccc(-c2ccc(S[C@H]3O[C@H](CO)[C@@H](O)[C@H](O)[C@@H]3O)c(C)c2)cn1`
Result block: 0.6

Query block: With Type 1 fimbrin D-mannose specific adhesin (Escherichia coli K-12) as the test system, provide measured EC90 for this molecule: `CCCCn1ccc(-c2ccc(S[C@H]3O[C@H](CO)[C@@H](O)[C@H](O)[C@@H]3O)c(C)c2)cc1=O`
Result block: 0.6

Query block: Fill: EC90 (Type 1 fimbrin D-mannose specific adhesin (Escherichia coli K-12)) for this molecule `Cc1cc(-c2ccc(=O)n(CC(C)(C)O)c2)ccc1S[C@H]1O[C@H](CO)[C@@H](O)[C@H](O)[C@@H]1O`
Result block: 1.25

====

- Experimental protocol: Oral bioavailability in mouse at 10 mg/kg
- Format: ADME, organism-based
- Condition: in vivo
Please note: rule met applies when bioavailability is 10% or greater, and rule not met applies otherwise.

Would you please look over these solved cases?
{"columns": ["Mol", "Classification"],
 "data": [
  ["Cc1cc(-c2ccc(=O)n(CC(C)(C)O)c2)ccc1S[C@H]1O[C@H](CO)[C@@H](O)[C@H](O)[C@@H]1O", "rule not met"],
  ["COc1ccc(-c2ccc(S[C@H]3O[C@H](CO)[C@@H](O)[C@H](O)[C@@H]3O)c(C)c2)cn1", "rule met"]
]}

Query block: Item `Cc1cc(-c2ccc(=O)n(-c3ccccc3)c2)ccc1S[C@H]1O[C@H](CO)[C@@H](O)[C@H](O)[C@@H]1O` with bioavailability of 10% or above?
Result block: rule met

Query block: For this compound, is measured bioavailability 10% or higher? `Cc1cc(-c2ccc(=O)n(CC(C)C)c2)ccc1S[C@H]1O[C@H](CO)[C@@H](O)[C@H](O)[C@@H]1O`
Result block: rule not met

Query block: Is it the case that `Cc1cc(-c2ccc(N3CCC3)nc2)ccc1S[C@H]1O[C@H](CO)[C@@H](O)[C@H](O)[C@@H]1O` has bioavailability reaching or exceeding 10%?
Result block: rule met

Query block: Check if bioavailability >= 10% (inclusive). Item: `CSc1ccc(-c2ccc(S[C@H]3O[C@H](CO)[C@@H](O)[C@H](O)[C@@H]3O)c(C)c2)cn1`
Result block: rule met

Query block: Kindly determine if bioavailability recorded for `CCCCn1cc(-c2ccc(S[C@H]3O[C@H](CO)[C@@H](O)[C@H](O)[C@@H]3O)c(C)c2)ccc1=O` is above or exactly 10%.
Result block: rule not met

Query block: Please tell me: is the compound `CCCCn1ccc(-c2ccc(S[C@H]3O[C@H](CO)[C@@H](O)[C@H](O)[C@@H]3O)c(C)c2)cc1=O` at or over 10% in terms of bioavailability?
Result block: rule not met
